System: MDA MB 468
ASSAY_PROCEDURE: Cytotoxicity propidium iodide assay, MDA MB 468
Assay type: cell-based
PARTICULARS: Homo sapiens; MDA MB 468 (breast), 48 hours treatment; read-out: IC50 Values in μM, C3b
MEASURED_METRIC: IC50 (µM)
Your answer should be a plain number; it is taken to be in µM.

Which value of IC50 has been reported for Cn1c(=O)n(-c2ccc3ncccc3c2)c2c3cc(-c4cnc(N)c(C(F)(F)F)c4)ccc3ncc21 in the records?
0.05

Which value of IC50 has been reported for Cn1c(=O)n(-c2ccc(C(F)(F)F)nc2)c2c3cc(-c4cnc(N)c(C(F)(F)F)c4)ccc3ncc21 in the records?
0.075

Which value of IC50 has been reported for Cn1c(=O)n(CCN2CCOCC2)c2c3cc(-c4cnc5ccccc5c4)ccc3ncc21 in the records?
1.1

Which value of IC50 has been reported for CC(C)(C#N)c1ccc(-n2c(=O)n(CC#N)c3cnc4ccc(-c5cnc(N)c(C(F)(F)F)c5)cc4c32)cn1 in the records?
0.013
